molecular target: DNA topoisomerase II (Homo sapiens) (UniProt P11388+Q02880); experiment: Compound was tested for percentage inhibition against DNA topoisomerase II; type: protein assay; settings: concentration not given here
REPORTED_METRIC: inhibition (%)
Reply numerically in %, unit not repeated.

INSERT INTO measurements (compound, reported_metric, value_observed) VALUES
  ('COc1cc([C@@H]2c3cc(OC(C)=O)c(OC(C)=O)c(OC(C)=O)c3CC3COC(=O)[C@@H]32)cc(OC)c1OC(C)=O (some centres undefined)', 'inhibition', 25),
  ('COc1cc([C@@H]2c3cc4c(cc3[C@@H](O)C3COC(=O)[C@@H]32)OCO4)cc(O)c1O (some centres undefined)', 'inhibition', 75),
  ('COc1cc([C@@H]2c3cc(O)c(O)c(O)c3CC3COC(=O)[C@@H]32)cc(OC)c1O (some centres undefined)', 'inhibition', 45);

Moving on to the next compound.
Quick one: inhibition of COc1cc([C@@H]2c3cc4c(c(OC(C)=O)c3CC3COC(=O)[C@@H]32)OCO4)cc(OC)c1OC(C)=O (some centres undefined) ? 10
